Source of measurements: PubChem BioAssay

Consider the following molecules; for each one, report its z-score.
test: PSAC antagonists in infected red cells, primary screen, cell-based, P. falciparum Indochina, OD700, 1 h (AID 1154); conditions: P. falciparum Indochina infected RBC osmotic lysis, higher = more signal, called active from +8 up or from −8 down
// return a plain number; no unit text

Given C=C(/C(=C/C[C@H](OC(=O)c1ccncc1)c1ccccc1OCCO)c1cnc2ccccc2c1)C(C)C , state its recorded z-score.
11.1

Looking for the measured z-score of C[C@]1(C(=O)O)c2ccccc2C(=O)N(Cc2ccc(OC(F)(F)F)cc2)[C@H]1c1ccc(CO)cc1 , can you help?
3.93

Return reported z-score; argument: CO[C@H]1O[C@H](CO)[C@@H](OC(=O)c2ccc(Br)cc2)[C@@H]2OC(=O)[C@H](Cc3ccccc3)C/C=C/C[C@@H](Cc3ccccc3)C(=O)O[C@@H]12
2.36

Entry COCCOC(=O)N1C(=O)[C@@]2(c3cc(C#CCCO)ccc31)[C@H](C(=O)N1CCCCCCC1)[C@H]1C(=O)O[C@H](c3ccccc3)[C@H](c3ccccc3)N1[C@@H]2c1ccccc1OCCO : reported z-score = ?
0.56

Which z-score reading was recorded for the molecule CCCCCN1CC=CC23O[C@@H]4/C=C\CCC(C)OC(=O)C4[C@H]2C(=O)N(CCCCCCO)[C@@H]3C1=O (stereo not given in full) ?
1.25

// returns reported z-score for input CCCCC=C[C@@H](NC(=O)c1ccccc1)c1ccccc1
0.318

Value lookup for z-score; key = COc1cc(NN2C(C(O)c3cc(OC)c(OC)c(OC)c3)C=CC3C(=O)N(c4ccccc4)C(=O)C32)cc(OC)c1OC (stereo not given)
2.73

Which z-score value is on record for CCCNC(=O)[C@@]1(C)c2ccccc2C(=O)N(Cc2ccccc2)[C@H]1c1ccc(CO)cc1 ?
3.35

Endpoint output: z-score of COCCOC(=O)N1C(=O)[C@@]2(c3cc(C#CCNC(N)=O)ccc31)[C@H](c1ccc(O)cc1)N1[C@H](c3ccccc3)[C@H](c3ccccc3)OC(=O)[C@H]1[C@@H]2C(=O)N1CCN(c2ncccn2)CC1 . Value?
2.78

Request the reported z-score associated with CCN(CC)c1ccc(N2CC=CC34O[C@@H]5C=CCCOC(=O)C5[C@H]3C(=O)N(CCO)[C@@H]4C2=O)cc1 (stereo not given in full)
1.03

Sample CN(C)CCCCCCNC(=O)[C@@H]1C[C@@H]2C(=O)N[C@@H](CCCCN)C(=O)N2[C@@H]1c1ccc(O)cc1 — what was its z-score?
0.983

Requested field: z-score. Item: COc1cc(CO)cc(I)c1O[C@H]1C=C(C(=O)NCCO)C[C@@H](NCC2CCCCC2)[C@@H]1O
1.35

Reported z-score for CCCNC(=O)[C@@]1(Sc2ccc(C)cc2)CC(=O)N(C(C)C)[C@@H]1c1ccc(CO)cc1I : what is it?
5.82

Which measured z-score value corresponds to C=C(COC)/C(=C/C[C@@H](OC(=O)c1ccncc1)c1ccccc1OCCO)c1cc(C(=O)OC)ccc1OC ?
23.5

Param item = CN1C(=O)[C@@H]2[C@@H](CC(COc3ccccc3)=C([C@H](O)CCc3ccccc3)[C@@H]2CO)C1=O ; retrieve measured z-score.
29.5

====

For each record, write down the corresponding composite z-score.
target: Dickkopf-related protein 1 (Homo sapiens) (UniProt O94907); assay: DKK1 binders on small-molecule microarrays, primary screen, biochemical, small-molecule microarray, 635 nm fluorescence scan (AID 1106); conditions: DKK1 binding, higher = more signal;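 also: score merges emission near 667 nm with signal to noise over three replicate slides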
Sequence (O94907 whole entry, looked up): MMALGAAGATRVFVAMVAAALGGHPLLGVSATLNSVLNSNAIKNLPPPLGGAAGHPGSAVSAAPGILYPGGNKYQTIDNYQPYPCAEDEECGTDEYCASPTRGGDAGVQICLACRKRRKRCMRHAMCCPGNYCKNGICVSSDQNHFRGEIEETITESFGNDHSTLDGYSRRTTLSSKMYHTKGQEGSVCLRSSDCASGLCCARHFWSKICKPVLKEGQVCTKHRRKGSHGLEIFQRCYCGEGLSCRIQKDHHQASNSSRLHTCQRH
API doc: respond with a numeric literal and nothing else, no unit.

// map [N-]=[N+]=Nc1ccccc1C[C@]1(C(=O)O)N=C(c2ccc(OCCCO)cc2)O[C@H]1c1ccccc1 to recorded composite z-score (system: Dickkopf-related protein 1 (Homo sapiens) (UniProt O94907))
-0.689

I'm curious: which composite z-score was measured for CC(C)[Si]1(C(C)C)OCc2cc(-c3ccc(-c4ccc(Cl)c(Cl)c4)o3)nc(CCc3ccccc3)c21 tested on Dickkopf-related protein 1 (Homo sapiens) (UniProt O94907)?
0.32

Query for Dickkopf-related protein 1 (Homo sapiens) (UniProt O94907): what composite z-score does the record show for Cc1c(NC(=O)/C(C#N)=C/c2ccccc2Cl)c(=O)n(-c2ccccc2)n1C ?
0.491

Report composite z-score for Cc1ccc(F)cc1S(=O)(=O)N[C@@H]1CCN(Cc2cccc3[nH]ccc23)C1 tested on Dickkopf-related protein 1 (Homo sapiens) (UniProt O94907).
0.236

# returns recorded composite z-score (system: Dickkopf-related protein 1 (Homo sapiens) (UniProt O94907)) for CCCCC(=C=CC[C@H](O)c1ccc(OCCO)cc1)C[C@H](O)COCc1ccccc1
-0.259

Request - read-out composite z-score | tested on Dickkopf-related protein 1 (Homo sapiens) (UniProt O94907) | compound CC(CO)N1C(=O)[C@@H]2[C@H]3C(=O)OCC=C[C@H]3OC23C=CCN(c2ccc(Cl)cc2)C(=O)[C@@H]13 (stereo partly drawn)
-1.92

For Dickkopf-related protein 1 (Homo sapiens) (UniProt O94907), provide composite z-score of O=C1O[C@H](c2ccccc2)[C@H](c2ccccc2)N2[C@H]1[C@@H](C(=O)N1CCCCCCC1)[C@]1(C(=O)Nc3ccc(C#CC4(O)CCCCCC4)cc31)[C@H]2c1ccccc1OCCO please.
2.77

What reported composite z-score corresponds to COC(=O)C(CC#Cc1ccc2c(c1)[C@]1(C(=O)N2)[C@H](c2ccc(OCCO)cc2)N2[C@H](c3ccccc3)[C@H](c3ccccc3)OC(=O)[C@H]2[C@@H]1C(=O)N1CCN(c2ncccn2)CC1)C(=O)OC on Dickkopf-related protein 1 (Homo sapiens) (UniProt O94907)?
0.982

Missing value: composite z-score, Dickkopf-related protein 1 (Homo sapiens) (UniProt O94907), entry CN(C)C(=O)[C@@]1(Cc2ccccc2N=[N+]=[N-])N=C(c2ccc(OCCCO)cc2)O[C@H]1c1ccccc1 . Fill in?
-0.217

composite z-score of COC(=O)c1c2oc(c1C(=O)OC)C(=O)N1CCC[C@H]1Cn1nncc1CN(Cc1ccccc1)C(=O)N[C@H](CO)CC2 on Dickkopf-related protein 1 (Homo sapiens) (UniProt O94907)?
-0.113

Missing value: composite z-score, Dickkopf-related protein 1 (Homo sapiens) (UniProt O94907), entry Cc1cccc([C@H]2C[C@H]3C(Br)=C[C@@H]2C(=O)[C@]32CO2)c1 . Fill in?
0.404

Request body: readout composite z-score, system Dickkopf-related protein 1 (Homo sapiens) (UniProt O94907), query COc1ccc(C#Cc2ccc3c(c2)[C@]2(C(=O)N3)[C@H](C(=O)N3CCCCCCC3)[C@H]3C(=O)O[C@H](c4ccccc4)[C@H](c4ccccc4)N3[C@@H]2c2ccc(O)cc2)cc1 . Return the value.
0.608

Write down the reported composite z-score of COc1ccc(C(=O)Nc2cccc(CN3C(=O)[C@@]4(O[C@@H](CC(=O)N(CCO)Cc5ccccc5)[C@H]([Si](C)(C)c5ccc(OC)cc5)[C@H]4C)c4ccccc43)c2)cc1 , test system: Dickkopf-related protein 1 (Homo sapiens) (UniProt O94907).
0.26

Record CN1C(=O)C2C(C1=O)C1C=C(CCCO)C2C(c2cccs2)N1Cc1cc2c(cc1Br)OCO2 (stereo not drawn) : what is its composite z-score with Dickkopf-related protein 1 (Homo sapiens) (UniProt O94907)?
0.373

Param readout= composite z-score; system= Dickkopf-related protein 1 (Homo sapiens) (UniProt O94907); entry= COc1ccc(NC(=O)O[C@H]2[C@@H]3OC(=O)[C@H](Cc4cccc(Br)c4)C/C=C/C[C@@H](Cc4cccc(Br)c4)C(=O)O[C@H]3[C@@H](OC)O[C@@H]2CO)cc1 ; returns value.
0.142

Lab note: need composite z-score for C=CCC(OC(C)=O)[C@@H]1[C@@H](N(Cc2ccc(-c3ccccc3)cc2)C(=O)Cc2ccc(F)cc2)c2cc(OCCCO)ccc2N1C(=O)Cc1ccc2ccccc2c1 (stereo partly drawn) on Dickkopf-related protein 1 (Homo sapiens) (UniProt O94907), anyone have it?
-0.117

State its composite z-score on Dickkopf-related protein 1 (Homo sapiens) (UniProt O94907): COCCOC(=O)N1C(=O)[C@@]2(c3cc(C#CCNC(N)=O)ccc31)[C@H](c1ccc(OCCO)cc1)N1[C@H](c3ccccc3)[C@H](c3ccccc3)OC(=O)[C@H]1[C@@H]2C(N)=O
0.204

What is its composite z-score for Dickkopf-related protein 1 (Homo sapiens) (UniProt O94907)? Entry: [N-]=[N+]=NCc1ccccc1[C@H]1OC(c2ccc(OCCCO)cc2)=N[C@@]1(Cc1ccccc1)C(=O)NCCN1CCOCC1
0.0815

Tell me reported composite z-score for CCN(CC)c1ccc(N2CC=CC34O[C@@H]5C=CCCOC(=O)C5[C@H]3C(=O)N(CCO)[C@@H]4C2=O)cc1 (stereo partly drawn) , tested with Dickkopf-related protein 1 (Homo sapiens) (UniProt O94907).
-0.351

Record [N-]=[N+]=NCc1ccccc1[C@H]1OC(c2ccc(OCCCO)cc2)=N[C@@]1(CCS(=O)(=O)c1ccccc1)C(=O)NCc1ccccc1 : what is its composite z-score with Dickkopf-related protein 1 (Homo sapiens) (UniProt O94907)?
-0.0778

Dickkopf-related protein 1 (Homo sapiens) (UniProt O94907) / composite z-score / C=C[C@H](C)[C@H](OC(=O)Nc1ccc(OC)cc1)c1ccc(OCCO)cc1 : value?
-1.28

Give recorded composite z-score with Dickkopf-related protein 1 (Homo sapiens) (UniProt O94907) for the following compound: CC(C)C(=C=CC[C@@H](O)c1cccc(OCCO)c1)C[C@@H](O)c1ccccn1
0.0852

Param readout = composite z-score; param system = Dickkopf-related protein 1 (Homo sapiens) (UniProt O94907); param query = O=C1O[C@H](c2ccccc2)[C@H](c2ccccc2)N2[C@H]1[C@@H](C(=O)O)[C@]1(C(=O)Nc3ccc(C#CC4(O)CCCCCC4)cc31)[C@H]2c1ccc(O)cc1 ; response: value
-0.297

Please provide the recorded composite z-score for COCCOC(=O)N1C(=O)[C@@]2(c3cc(C#CCC(C(=O)OC)C(=O)OC)ccc31)[C@H](c1ccc(O)cc1)N1[C@H](c3ccccc3)[C@H](c3ccccc3)OC(=O)[C@H]1[C@@H]2C(=O)NC[C@H](O)c1ccccc1 , tested on Dickkopf-related protein 1 (Homo sapiens) (UniProt O94907).
0.148

Reported composite z-score for Dickkopf-related protein 1 (Homo sapiens) (UniProt O94907), given COc1cc(NN2C(C(O)c3cc(OC)c(OC)c(OC)c3)C=CC3C(=O)N(c4ccccc4)C(=O)C32)cc(OC)c1OC (stereo not drawn) ?
0.101

Field: composite z-score (Dickkopf-related protein 1 (Homo sapiens) (UniProt O94907)). Entry: CN1C(=O)C2C=CC(C(O)c3ccc(I)cc3)N(Nc3ccccc3)C2C1=O (stereo not drawn)
-0.158

Which measured composite z-score belongs to CC(=O)NCCCC[C@@H]1NC(=O)[C@H]2C[C@@H](C(=O)NCCCCCNC(=O)CS)[C@@H](c3cccc(OCCO)c3)N2C1=O , tested on Dickkopf-related protein 1 (Homo sapiens) (UniProt O94907)?
0.607

Param readout= composite z-score; system= Dickkopf-related protein 1 (Homo sapiens) (UniProt O94907); entry= CC(=O)n1cc(C(O)C2C=CC3C(=O)N(c4ccccc4)C(=O)C3N2Nc2ccc(C(C)C)cc2)c2ccccc21 (stereo not drawn) ; returns value.
0.076
